The following molecules are shown together with reported melting point values.

A selection of reference data follows.
molecule	melting point
CN(Cc1cc(C(F)(F)F)cc(C(F)(F)F)c1)C(=O)c1oc(=O)c2ccc(Cl)cc2c1-c1ccccc1	170 to 171 °C
C[C@H]1[C@H](N(C)C(=O)C(F)(F)F)CN1c1c(F)cc2c(=O)c(C(=O)O)cn(C3CC3)c2c1F (relative stereo)	246 to 249 °C

Query :: State the recorded melting point for this entry: BrCc1ccc2ccccc2c1Br
Result :: 106 to 108 °C

Query :: State the recorded melting point for this entry: CCC(=NO)c1ccc(OCCCCCCCc2cc(C)no2)cc1
Result :: 88 to 89 °C

Query :: State the recorded melting point for this entry: CCOC(=O)c1ccc(-c2coc(-c3ccc(Cl)cc3)n2)cc1
Result :: 153 to 154 °C

Query :: State the recorded melting point for this entry: O=C1COc2ccc(NC(=O)C(=O)N3CCC(Cc4ccccc4)CC3)cc2N1
Result :: 186 to 187 °C

Query :: State the recorded melting point for this entry: CC(=O)OC(=O)c1ccc(N2C(=O)NC(N(CC(C)C)C(C)=O)NC2=O)cc1
Result :: 134 to 137 °C

Query :: State the recorded melting point for this entry: CCOC(=O)c1ccc2c(c1)OC(c1cc(Cl)cc(Cl)c1)(c1cc(Cl)cc(Cl)c1)O2
Result :: 89 °C

Query :: State the recorded melting point for this entry: N#Cc1c(Cl)c2ccccc2n(Cc2ccc(F)cc2)c1=O
Result :: 231 °C

Query :: State the recorded melting point for this entry: N#Cc1c(N2CCCCC2)cc(-c2ccc(F)cc2)c2c1C(=O)c1ccccc1-2
Result :: 152 to 154 °C

Query :: State the recorded melting point for this entry: NS(=O)(=O)c1ccc(-n2nc(C(F)(F)F)c(Cl)c2-c2ccc(Cl)cc2)cc1
Result :: 180 to 182 °C

* * *

readout.label: melting point

compound	melting point
COc1ccc(NS(=O)(=O)c2ccc([N+](=O)[O-])cc2[N+](=O)[O-])cc1	115 to 116 °C
O=C(c1ccccc1)c1ccc(Nc2ncnc3ccc(-n4ccnc4)cc23)cc1Cl	220 to 223 °C
CCOC(=O)CCNC(=O)NC1CCN(c2ccc(C=NNOC(=O)OCC)cc2)C1=O (stereo not drawn)	198 to 201 °C

Query :: State the recorded melting point for this entry: CCCn1c(=O)n(Cc2ccccc2)c(=O)c2c(Cl)cc(Cl)cc21
Result :: 90 to 93 °C

Query :: State the recorded melting point for this entry: NCc1c(CN(Cc2ccccc2)Cc2ccccc2)cccc1C(F)(F)C(F)(F)c1ccccc1
Result :: 172 to 174 °C

Query :: State the recorded melting point for this entry: COCOc1ccc(C=C2CCCC(=Cc3ccc(OCOC)c(OC)c3)C2=O)cc1OC
Result :: 73 to 75 °C

Query :: State the recorded melting point for this entry: COc1ccc(-c2cccc3c2C(=O)OC(C)(C)O3)cn1
Result :: 160 °C

Query :: State the recorded melting point for this entry: CN1CCOC(C2=C(C#N)C(c3cccc(C#N)c3Br)c3c[nH]nc3N2)C1 (stereo not drawn)
Result :: 180 °C

Query :: State the recorded melting point for this entry: NCCc1cc(Cl)c(NC(=O)CN2CCN(CCCCC(c3ccc(F)cc3)c3ccc(F)cc3)CC2C(N)=O)c(Cl)c1 (stereo not drawn)
Result :: 161 °C

Query :: State the recorded melting point for this entry: CN1CCN(c2cc3c(cc2C(F)(F)F)[nH]c(=O)c2n[nH]c(=O)n23)CC1
Result :: > 300 °C

Query :: State the recorded melting point for this entry: O=C(C1CCCCC1CO)N1CCCC1 (stereo not drawn)
Result :: 115 °C

Query :: State the recorded melting point for this entry: O=C1C(c2cc(OCc3ccccc3)ccc2O)c2ccccc2N1Cc1ccc(Cl)s1 (stereo not drawn)
Result :: 173 to 175 °C

Query :: State the recorded melting point for this entry: COc1ccc2nn(C)cc2c1C1CC1CNC(C)=O (stereo not drawn)
Result :: 104 to 105 °C

Query :: State the recorded melting point for this entry: C[C@]12CCC(=O)N[C@@H]1CCc1cc(SCc3ccccc3)ccc12
Result :: 172 to 174 °C

Query :: State the recorded melting point for this entry: CCc1[nH]c(=O)n(-c2cc(C(=O)OC(C)C)c(Cl)cc2F)c(=O)c1C
Result :: 192 to 194 °C

Query :: State the recorded melting point for this entry: COc1ccc(Oc2ccccc2)c(N)c1
Result :: 112 to 114 °C

Query :: State the recorded melting point for this entry: C=C1c2ccc(OC)cc2CC(=NO)c2ccccc21
Result :: 125 to 127 °C

Query :: State the recorded melting point for this entry: CCNC(=O)c1cc(Cl)ccc1[Si](C)(C)C
Result :: 104 to 105 °C

Attribution: a melting point compilation (Tetko et al.; mined from patent text by program, amines drawn as free bases though some values may be those of a salt)
